Field: Cyno Primary Hepatocyte Editing % 500. Provide a value for each of the molecules that follow.
# Tested on: PCSK9 gene
# METHOD: PCSK9 gRNA/SpCas9 editing in primary cynomolgus hepatocytes (Tables 2, 22)
# Type: cell-based, cynomolgus monkey
# CONDITIONS: 500 ng/RNA/mL; SpCas9 mRNA MS002 1:1 by weight
m = 2'-O-methyl; r = 2'-OH (RNA)
Numbers only, in %.

MOLECULE | Cyno Primary Hepatocyte Editing % 500, %
GA196: PCSK9 gRNA; protospacer GAGTGACCACCGGGAAATCG (SEQ ID NO: 190) (nucleic acid, sugars from the 5' end m3 r94 m3, linkages s3 o93 s3 (s phosphorothioate, o phosphodiester), T or U not given here) guide: GAGUGACCACCGGGAAAUCGGUUUUAGAGCUAGAAAUAGCAAGUUAAAAUAAGGCUAGUCCGUUAUCAACUUGAAAAAGUGGCACCGAGUCGGUGCUUUU | 3.4

Next molecule, Cyno Primary Hepatocyte Editing % 500 to be filled in.
-- ask Endpoint output: Cyno Primary Hepatocyte Editing % 500 of GA247: PCSK9 gRNA; protospacer CCTCGCCAGGCGCTGGCAGG (SEQ ID NO: 240) (nucleic acid, sugars from the 5' end m3 r94 m3, linkages s3 o93 s3 (s phosphorothioate, o phosphodiester), T or U not given here) guide: CCUCGCCAGGCGCUGGCAGGGUUUUAGAGCUAGAAAUAGCAAGUUAAAAUAAGGCUAGUCCGUUAUCAACUUGAAAAAGUGGCACCGAGUCGGUGCUUUU . Value?
-- reply 2.62
